Molecular target: human PCSK9 (Homo sapiens, UniProt Q8NBP7)
Sequence (Q8NBP7 153-692): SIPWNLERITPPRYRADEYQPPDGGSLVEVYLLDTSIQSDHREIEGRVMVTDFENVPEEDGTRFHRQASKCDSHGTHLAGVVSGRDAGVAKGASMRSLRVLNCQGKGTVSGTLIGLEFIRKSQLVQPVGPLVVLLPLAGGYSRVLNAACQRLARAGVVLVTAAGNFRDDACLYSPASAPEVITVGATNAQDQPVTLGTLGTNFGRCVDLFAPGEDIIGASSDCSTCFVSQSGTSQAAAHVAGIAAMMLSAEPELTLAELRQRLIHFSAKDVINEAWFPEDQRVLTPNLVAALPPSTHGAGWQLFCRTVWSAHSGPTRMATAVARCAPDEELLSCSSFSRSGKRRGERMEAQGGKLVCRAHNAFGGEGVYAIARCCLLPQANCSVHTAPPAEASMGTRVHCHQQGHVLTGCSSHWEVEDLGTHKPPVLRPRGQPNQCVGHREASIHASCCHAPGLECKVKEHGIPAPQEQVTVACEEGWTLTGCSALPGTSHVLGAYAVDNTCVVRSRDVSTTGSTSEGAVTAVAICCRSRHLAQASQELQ
Sequence (Q8NBP7 31-152 partner limits assumed): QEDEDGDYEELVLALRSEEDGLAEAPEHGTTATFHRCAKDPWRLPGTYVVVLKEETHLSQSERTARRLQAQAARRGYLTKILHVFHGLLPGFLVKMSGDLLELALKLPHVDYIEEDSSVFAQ
Experiment: PCSK9 ligand binding assay (TR-FRET): interference with binding of human PCSK9 to human LDLR
Conditions: PCSK9 FRET assay, efficacy (Amax); 0% = DMSO, 100% = 1 uM unlabeled human PCSK9
Bridge positions count the residues as written; N and C are the ends. Square brackets hold non-standard residues; d marks the D form. Peptide text beside a SMILES is read from it. Phe(3,4-Cl2) = N[C@@H](Cc1ccc(Cl)c(Cl)c1)C(=O)O; Phe(4-CF3) = N[C@@H](Cc1ccc(C(F)(F)F)cc1)C(=O)O; Bip = N[C@@H](Cc1ccc(-c2ccccc2)cc1)C(=O)O; Phe(3-F) = N[C@@H](Cc1cccc(F)c1)C(=O)O; NMeF = CN[C@@H](Cc1ccccc1)C(=O)O; NMeA = CN[C@@H](C)C(=O)O
Rule: YES for Maximum % inhibition not less than 90%, NO for anything less.

# example entries with known answers
| compound | tested system | group label |
| --- | --- | --- |
| CC(C)[C@@H]1NC(=O)[C@H](Cc2ccccc2)NC(=O)CSC[C@@H](C(=O)NCC(N)=O)NC(=O)[C@@H]2CCCN2C(=O)[C@H](CCCNC(=N)N)NC(=O)[C@H](CC(=O)O)NC(=O)[C@H](C)N(C)C(=O)[C@H](Cc2cccc(F)c2)NC(=O)[C@H](C)N(C)C(=O)[C@H](Cc2ccc(-c3ccccc3)cc2)NC(=O)[C@H]([C@@H](C)O)NC(=O)[C@H]([C@@H](C)O)NC(=O)[C@H](CO)NC1=O [Example 1-15] ({CH2CO}-FVSTT[Bip][NMeA][Phe(3-F)][NMeA]DRPCG-NH2; thioether N-13) | human PCSK9 (Homo sapiens, UniProt Q8NBP7) | NO |
| CC(C)[C@@H]1NC(=O)[C@H](Cc2ccccc2)NC(=O)CSC[C@@H](C(=O)NCC(N)=O)NC(=O)[C@@H]2CCCN2C(=O)[C@H](CO)NC(=O)[C@H](CCC(=O)O)NC(=O)[C@H](C)N(C)C(=O)[C@H](Cc2ccc(-c3ccccc3)cc2)NC(=O)[C@H](Cc2ccccc2)N(C)C(=O)[C@H](CO)NC(=O)[C@H]([C@@H](C)O)NC(=O)[C@H]([C@@H](C)O)NC(=O)[C@H](CO)NC1=O [Example 1-12] ({CH2CO}-FVSTTS[NMeF][Bip][NMeA]ESPCG-NH2; thioether N-13) | human PCSK9 (Homo sapiens, UniProt Q8NBP7) | NO |
| CCNC(=O)[C@@H]1CSCC(=O)N[C@@H](Cc2ccccc2)C(=O)N[C@@H](C(C)C)C(=O)N2CCC[C@H]2C(=O)N[C@@H]([C@@H](C)O)C(=O)N[C@@H]([C@@H](C)O)C(=O)N[C@@H](Cc2ccc(-c3ccccc3)cc2)C(=O)N(C)[C@@H](C)C(=O)N[C@@H](Cc2ccc(-c3ccccc3)cc2)C(=O)N(C)[C@@H](C)C(=O)N[C@@H](CCC(=O)O)C(=O)N[C@@H](C)C(=O)N2CCC[C@H]2C(=O)N1 | human PCSK9 (Homo sapiens, UniProt Q8NBP7) | NO |
| CC(C)[C@@H]1NC(=O)[C@H](Cc2ccccc2)NC(=O)CSC[C@@H](C(=O)NCC(N)=O)NC(=O)[C@@H]2CCCN2C(=O)[C@H](CCCNC(=N)N)NC(=O)[C@H](CC(=O)O)NC(=O)[C@H](C)N(C)C(=O)[C@H](Cc2ccc(Cl)c(Cl)c2)NC(=O)[C@H](C)N(C)C(=O)[C@H](Cc2ccc(-c3ccccc3)cc2)NC(=O)[C@H]([C@@H](C)O)NC(=O)[C@H]([C@@H](C)O)NC(=O)[C@H](CO)NC1=O [Example 1-14] ({CH2CO}-FVSTT[Bip][NMeA][Phe(3,4-Cl2)][NMeA]DRPCG-NH2; thioether N-13) | human PCSK9 (Homo sapiens, UniProt Q8NBP7) | NO |
| CC(C)[C@@H]1NC(=O)[C@H](Cc2ccccc2)NC(=O)CSC[C@@H](C(=O)NCC(N)=O)NC(=O)[C@@H]2CCCN2C(=O)[C@H](CO)NC(=O)[C@H](CCC(=O)O)NC(=O)[C@H](C)N(C)C(=O)[C@H](Cc2ccc(C(F)(F)F)cc2)NC(=O)[C@H](Cc2ccccc2)N(C)C(=O)[C@H](CO)NC(=O)[C@H]([C@@H](C)O)NC(=O)[C@H]([C@@H](C)O)NC(=O)[C@H](CC(=O)O)NC1=O [Example 1-6] ({CH2CO}-FVDTTS[NMeF][Phe(4-CF3)][NMeA]ESPCG-NH2; thioether N-13) | human PCSK9 (Homo sapiens, UniProt Q8NBP7) | YES |

Textbook exercise: given the entry `CC(C)[C@@H]1NC(=O)[C@H](Cc2ccccc2)NC(=O)CSC[C@@H](C(=O)NCC(N)=O)NC(=O)[C@@H]2CCCN2C(=O)[C@H](CCCNC(=N)N)NC(=O)[C@H](CC(=O)O)NC(=O)[C@H](C)N(C)C(=O)[C@H](Cc2ccc(-c3ccccc3)cc2)NC(=O)[C@H](C)N(C)C(=O)[C@H](Cc2ccc(-c3ccccc3)cc2)NC(=O)[C@H]([C@@H](C)O)NC(=O)[C@H]([C@@H](C)O)NC(=O)[C@H](CO)NC1=O` , state whether its Maximum % inhibition is greater than or equal to 90%.
NO

Determine whether measured Maximum % inhibition meets or exceeds 90% for CC(C)[C@@H]1NC(=O)[C@H](Cc2ccccc2)NC(=O)CSC[C@@H](C(=O)NCC(N)=O)NC(=O)[C@@H]2CCCN2C(=O)[C@H](CO)NC(=O)[C@H](CCC(=O)O)NC(=O)[C@H](C)N(C)C(=O)[C@H](Cc2ccc(-c3ccccc3)cc2)NC(=O)[C@H](Cc2ccccc2)N(C)C(=O)[C@H](CO)NC(=O)[C@H]([C@@H](C)O)NC(=O)[C@H]([C@@H](C)O)NC(=O)[C@H](CC(=O)O)NC1=O [Example 1-5] ({CH2CO}-FVDTTS[NMeF][Bip][NMeA]ESPCG-NH2; thioether N-13)
YES

Hello, I need to know if CC(C)[C@@H]1NC(=O)[C@H](Cc2ccccc2)NC(=O)CSC[C@@H](C(=O)NCC(N)=O)NC(=O)[C@@H]2CCCN2C(=O)[C@H](CO)NC(=O)[C@@H]2CCCN2C(=O)[C@H](C)N(C)C(=O)[C@H](Cc2ccc(-c3ccccc3)cc2)NC(=O)[C@H](C)N(C)C(=O)[C@H](Cc2ccc(-c3ccccc3)cc2)NC(=O)[C@H]([C@@H](C)O)NC(=O)[C@H]([C@@H](C)O)NC(=O)[C@H](CO)NC1=O [Example 1-20] ({CH2CO}-FVSTT[Bip][NMeA][Bip][NMeA]PSPCG-NH2; thioether N-13) has measured Maximum % inhibition not below 90%. Thanks!
NO

Please indicate if the recorded Maximum % inhibition for CC(C)[C@@H]1NC(=O)[C@H](Cc2ccccc2)NC(=O)CSC[C@@H](C(=O)NCC(N)=O)NC(=O)[C@@H]2CCCN2C(=O)[C@H](C)NC(=O)[C@H](CCCCN)NC(=O)[C@H](C)N(C)C(=O)[C@H](Cc2ccc(-c3ccccc3)cc2)NC(=O)[C@H](C)N(C)C(=O)[C@H](Cc2ccccc2)NC(=O)[C@H]([C@@H](C)O)NC(=O)[C@H]([C@@H](C)O)NC(=O)[C@H](C)NC1=O [Example 1-22] ({CH2CO}-FVATTF[NMeA][Bip][NMeA]KAPCG-NH2; thioether N-13) meets or exceeds 90%.
NO
